System: human hepatocytes
Test: Hepatocytes stability assay (human hepatocytes)
Format: in vitro ADME
Conditions: scaled hepatic clearance divided by liver blood flow, fu assumed unity
Property: Extraction Ratio (ER)

Take a look at these entries with their results.
CS(=O)(=O)N[C@H]1CCCN2CCOc3ncccc3C3CCC(CC3)OCC12 (stereo partly shown) = 0.84
[2H]C1([2H])COc2ccccc2C2CCC(CC2)OCC2[C@@H](NS(C)(=O)=O)CCCN21 (stereo partly shown) = 0.89
CS(=O)(=O)N[C@H]1CCCN2C(=O)C(F)(F)Oc3c(F)cc(F)cc3C3CCC(CC3)OCC12 (stereo partly shown) = 0.87
CS(=O)(=O)N[C@H]1CCCN2CCOc3c(F)cc(F)cc3C3CCC(CC3)OCC12 (stereo partly shown) = 0.90
CS(=O)(=O)N[C@H]1CCCN2C(=O)COc3ccc(Cl)cc3C3CCC(CC3)OCC12 (stereo partly shown) = 0.41

a. CS(=O)(=O)N[C@H]1CCN2C(=O)C(F)(F)Oc3c(F)cc(F)cc3C3CCC(CC3)OCC12 (stereo partly shown)
b. CS(=O)(=O)N[C@H]1CCCN2C(=O)CCc3ccccc3C3CCC(CC3)OCC12 (stereo partly shown)
Ask: Task for the reader: decide whether a or b has the larger Extraction Ratio (ER). State the label of the item chosen.
Result: a

---

Test system: human hepatocytes
Assay: Hepatocytes stability assay (human hepatocytes)
Format: in vitro ADME
Settings: scaled hepatic clearance divided by liver blood flow, fu assumed unity
Property: Extraction Ratio (ER)

CS(=O)(=O)N[C@H]1CCCN2C(=O)CCOc3ccccc3C3CCC(CC3)OCC12 (stereo partly shown) = 0.67
CS(=O)(=O)N[C@H]1CCN2C(=O)COc3ccccc3C3CCC(CC3)OCC12 (stereo partly shown) = 0.78

a. C[C@@H]1Oc2ccccc2C2CCC(CC2)OCC2[C@@H](NS(C)(=O)=O)CCCN2C1=O (stereo partly shown)
b. CS(=O)(=O)N[C@H]1CCCN2C(=O)COc3ccc(Br)cc3C3CCC(CC3)OCC12 (stereo partly shown)
Ask: Task for the reader: decide whether a or b has the larger Extraction Ratio (ER). State the label of the item chosen.
Result: a
(a: 0.82, b: 0.24)

---

Target: UniProt:O43614
Sequence (O43614 1-444): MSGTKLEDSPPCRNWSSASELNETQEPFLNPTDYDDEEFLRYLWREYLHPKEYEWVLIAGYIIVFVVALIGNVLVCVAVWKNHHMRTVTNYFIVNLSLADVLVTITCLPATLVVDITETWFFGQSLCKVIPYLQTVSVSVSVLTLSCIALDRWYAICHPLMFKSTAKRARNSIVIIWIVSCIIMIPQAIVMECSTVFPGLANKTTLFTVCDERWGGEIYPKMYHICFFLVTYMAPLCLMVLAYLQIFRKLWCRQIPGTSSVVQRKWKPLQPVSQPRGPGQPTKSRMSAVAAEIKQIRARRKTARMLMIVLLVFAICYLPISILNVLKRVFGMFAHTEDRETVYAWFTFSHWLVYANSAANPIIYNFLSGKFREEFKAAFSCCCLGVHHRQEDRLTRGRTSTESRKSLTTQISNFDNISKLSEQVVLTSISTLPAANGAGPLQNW
Assay: Human OX2R IP1 assay
Conditions: T-Rex CHO cells stably overexpressing human OX2R, IP1 accumulation, 1 hr at 37 degrees C; mean EC50; ∧ = racemic mixture
Property: EC50

CS(=O)(=O)N[C@H]1CCCN2C(=O)COc3ccccc3[C@H]3CC[C@H](CC3)OC[C@@H]12 = < 100 nM

Ask: Tell me measured EC50 for `CC1(C)CN2CCC[C@H](NS(C)(=O)=O)[C@@H]2CO[C@H]2CC[C@H](CC2)c2ccccc2O1` please.
Result: 100 to 1000 nM

Ask: Tell me measured EC50 for `CS(=O)(=O)N[C@H]1CCCN2C(=O)COc3ncc(F)cc3[C@H]3CC[C@H](CC3)OC[C@@H]12` please.
Result: < 100 nM

Ask: Tell me measured EC50 for CS(=O)(=O)N[C@@H]1CCCN2C(=O)COc3cnccc3[C@H]3CC[C@H](CC3)OC[C@H]12 (racemic) please.
Result: < 100 nM

Ask: Tell me measured EC50 for CS(=O)(=O)N[C@@H]1CCCN2C(=O)COc3cccnc3[C@H]3CC[C@H](CC3)OC[C@H]12 (racemic) please.
Result: 100 to 1000 nM

Ask: Tell me measured EC50 for `CS(=O)(=O)N[C@H]1CCCN2CCOc3c(F)cc(F)cc3[C@H]3CC[C@H](CC3)OC[C@@H]12` please.
Result: 100 to 1000 nM

Ask: Tell me measured EC50 for `CC1(C)Oc2ccccc2[C@H]2CC[C@H](CC2)OC[C@H]2[C@@H](NS(C)(=O)=O)CCCN2C1=O` please.
Result: < 100 nM
